# PROCEDURE_TEXT: solvent given as SMILES
# TEST_CONTEXT: in ClCCl
Param threshold (500 nm) applies to emission maximum; output Satisfied when value >= threshold, Not satisfied when value < threshold.

Asked: Is emission maximum for CCN(CC)c1ccc2cc(-c3cc(SC)c(C#N)c(=O)o3)c(=O)oc2c1 at or above 500 nm?
Given back: Satisfied

====

# PROCEDURE_TEXT: solvent given as SMILES
# TEST_CONTEXT: in CCCCCCC
Please use Met whenever emission maximum is not below 400 nm, and Not met whenever it is.

Asked: Would you say COc1c2ccccc2c(-c2ccccc2)c2ccccc12 shows emission maximum at minimum 400 nm?
Given back: Met

More entries:
Asked: Determine whether this compound has emission maximum no lower than 400 nm: COc1ccc(/C=C/c2nc(/C=C/c3ccc(N(C)C)cc3)cc(/C=C/c3ccc(N(C)C)cc3)n2)cc1
Given back: Met

Asked: Evaluate COc1ccc(C#Cc2ccc(C#N)cc2)cc1OC : emission maximum at minimum 400 nm?
Given back: Not met

Asked: Decide: emission maximum of CN(C)c1ccc(/C=C/c2nc(/C=C/c3ccc(N(c4ccccc4)c4ccccc4)cc3)cc(/C=C/c3ccc(N(c4ccccc4)c4ccccc4)cc3)n2)cc1 >= 400 nm?
Given back: Met

====

# PROCEDURE_TEXT: solvent given as SMILES
# TEST_CONTEXT: in c1ccncc1
For each of the compounds below, state its emission maximum.
Numbers only, in nm.

Example results:
Asked: What does the data say about its emission maximum? Entry: O=Cc1ccc(-c2ccc(C3=CCC(c4ccccc4)CC3)s2)s1 (centres undefined)
Given back: 481

Asked: # emission maximum lookup, item N#Cc1ccc(-c2ccc(C3=CCC(c4ccccc4)CC3)s2)s1 (centres undefined)
Given back: 452

Asked: I have this compound here, CCCCC[n+]1ccc(/C=C/c2ccc(N(C)C)c3ccccc23)c2ccccc21 , and I need its recorded emission maximum.
Given back: 706

--- query ---
Asked: What value of emission maximum has been recorded for this entry: Cc1c2oc3c(C)c(N)cc(C(=O)NC4OC(=O)C(C(C)C)N(C)C(=O)CN(C)C(=O)C5CCCN5C(=O)C(C(C)C)NC4=O)c3nc-2c(C(=O)NC2OC(=O)C(C(C)C)N(C)C(=O)CN(C)C(=O)C3CCCN3C(=O)C(C(C)C)NC2=O)c(N)c1=O (centres undefined)
Given back: 648.07

====

# PROCEDURE_TEXT: solvent given as SMILES
# TEST_CONTEXT: in CO
So I've got a bunch of molecules here, and I need their emission maximum values.
Numbers only, in nm.

Solved cases below.
Asked: Name the recorded emission maximum for CN1CCN(c2ccc3c4c(cccc24)C(=O)c2ccccc2-3)CC1 .
Given back: 645

Asked: What emission maximum value was documented for this molecule, CN(C)c1nc(N)nc2c1nc(C#N)n2Cc1ccccc1 ?
Given back: 389

Asked: Please look up its emission maximum: CCN(CC)c1ccc(/C=C/C2=[O+][B-](F)(F)Oc3c2c(=O)oc2cc(N(CC)CC)ccc32)cc1
Given back: 637

Asked: Look up emission maximum: COC1=[N+]2C(=C(c3ccccc3)c3cc(SC#N)c(OC)n3[B-]2(F)F)C=C1SC#N
Given back: 550

Asked: Record request: emission maximum value, item CN(C)c1ccc2nc(-c3ccc(C(=O)Nc4ccccc4)cc3)sc2c1
Given back: 565

Asked: Name the reported emission maximum value associated with the molecule O=c1c2ccc(N3CCCCC3)cc2oc2cc(N3CCCCC3)ccc12
Given back: 448.15

Asked: Requested field: emission maximum. Item: CN(C)c1ccc2c(c1)C(C)(C)C1=CC(=[N+](C)C)C=CC1=C2
Given back: 620

Asked: Item Cc1ccc(-c2cc(-c3ccccc3Cl)c3c(N)nc(N4CCCC4)c(C#N)c3n2)cc1 has what recorded emission maximum?
Given back: 525

Asked: // returns reported emission maximum for input c1ccc(-c2nc(-c3ccc(-c4nc(-c5ccccc5)c(-c5ccccc5)[nH]4)s3)[nH]c2-c2ccccc2)cc1
Given back: 457

Asked: Look at this molecule and give its reported emission maximum. Cc1cccc2nc3c(=O)[nH]c(=O)[nH]c3nc12
Given back: 469

Take each entry in turn and give its emission maximum.
1. CCN(CC)c1ccc2c(C)cc(=O)oc2c1
2. COCCOCCOCCOc1ccc(OCCOCCOCCOC)c(C=O)c1
3. COc1ccc(/C=C/C=C/C=C/c2ccc([N+](=O)[O-])cc2)cc1
4. CC1(C)C2=C(c3ccc(N(c4ccccc4)c4ccccc4)cc31)P(=O)(c1ccccc1)c1ccccc12 (stereo not given)
5. CN(C)c1ccc(-c2nc(C#N)c(C#N)n2C)cc1
6. C#CCOc1ccc(/C=C/C2=[N+]3C(=C(c4ccc(N5CCCCC5)cc4)c4c(C)cc(C)n4[B-]3(F)F)C(C)=C2)cc1

Given back:
1: 462; 2: 468; 3: 690; 4: 598; 5: 427; 6: 582

// for each molecule below, give its emission maximum
1. Cc1ccccc1C1=C2C=c3c(oc4ccccc34)=[N+]2[B-](F)(F)n2c1cc1c3ccccc3oc12
2. CN(C)c1ccc2c(c1)[Si](C)(C)C1=CC(=[N+](C)C)C=CC1=C2C#Cc1ccccc1

Given back:
1: 595; 2: 738

Consider the following items and state reported emission maximum for each.
1. CCC1=C(C)c2cc3c(OC)cc(OC)cc3c(=O)n2C1=O
2. CCCCc1ccc2ccc3c(CCCC)cc(CCCC)c4ccc1c2c34

Given back:
1. 510
2. 384

====

Give emission maximum for every item shown.
# PROCEDURE_TEXT: solvent given as SMILES
# TEST_CONTEXT: in CCOC(C)=O
Answers are plain numbers, in nm.

Worked cases, answers included:
Asked: Which emission maximum value belongs to COC1=[N+]2C(=C(c3ccccc3)c3ccc(OC)n3[B-]2(F)F)C=C1SC#N ?
Given back: 543

Asked: Item under review: CCn1c(-c2ccc(-c3ccc4c(c3)C(c3ccccc3)(c3ccccc3)c3ccccc3-4)cc2)c(-c2ccc3ccccc3c2)c(-c2ccc3ccccc3c2)c1-c1ccc(-c2ccc3c(c2)C(c2ccccc2)(c2ccccc2)c2ccccc2-3)cc1 . Reported emission maximum?
Given back: 441

Asked: Requested read-out: emission maximum. Entry: CCOC(=O)c1sc2nc(-c3ccccc3)c(C)c(C#N)c2c1N
Given back: 558

Asked: Any idea what its emission maximum is? The molecule is Cc1ccc(-n2c3ccccc3c3cc(C=C(C#N)C#N)ccc32)cc1
Given back: 474

Asked: I have this molecule here, CN(C)c1ccc(/C=C/C=C2\CC/C(=C\c3ccc(N(C)C)cc3)C2=O)cc1 , and I need its recorded emission maximum.
Given back: 591

Asked: What value of emission maximum has been recorded for this entry: COc1ccc(C#Cc2ccc(C#N)cc2)cc1OC
Given back: 408

Asked: Find the recorded emission maximum belonging to Cc1ccc([C@@H]2C[C@](O)(c3ccccn3)C[C@](O)(c3ccccn3)[C@H]2C(=O)c2ccc(N(c3ccccc3)c3ccccc3)cc2)cc1 and report it.
Given back: 496

Asked: Give its emission maximum value. Item: CCCCCCOc1ccc(N(c2ccc(OCCCCCC)cc2)c2ccc(-c3sc(-c4ccc(N(c5ccc(OCCCCCC)cc5)c5ccc(OCCCCCC)cc5)cc4)c4nc(-c5ccccc5)c(-c5ccccc5)nc34)cc2)cc1
Given back: 768

For each entry beneath this line, provide reported emission maximum.
1. CCN(CC)c1cccc2c1ccc1c(=O)oc(-c3ccc(C(F)(F)F)cc3)cc12
2. CCC1=C(C)C2=C(C)c3c(C)c(CC)c(C)n3[B-](F)(F)[N+]2=C1C
3. COc1ccc(-n2c3ccccc3c3cc(/C=C/C(=C(C#N)C#N)c4ccccc4)ccc32)cc1

Given back:
568
531.6
550

# batch: return emission maximum for each of the 5 molecules below
1. CCCCC(CC)Cn1c2cc(C#N)ccc2c2cc(-c3ccc(N(c4ccccc4)c4ccccc4)cc3)c(C#N)cc21 (stereo unspecified)
2. F[B-]1(F)n2c(Cl)ccc2C(c2c(Cl)cccc2Cl)=C2C=CC(NCc3ccccc3)=[N+]21
3. CN1CCN(c2ccc3c4c(cccc24)C(=O)c2ccccc2-3)CC1
4. CCC1(CC)c2cc(C#Cc3cc(C#Cc4ccc5c(c4)C(CC)(CC)c4cc(N(c6ccccc6)c6ccccc6)ccc4-5)c4ccc5c(C#Cc6ccc7c(c6)C(CC)(CC)c6cc(N(c8ccccc8)c8ccccc8)ccc6-7)cc(C#Cc6ccc7c(c6)C(CC)(CC)c6cc(N(c8ccccc8)c8ccccc8)ccc6-7)c6ccc3c4c65)ccc2-c2ccc(N(c3ccccc3)c3ccccc3)cc21
5. N#CC(C#N)=C(/C=C/c1cc2c3c(c1)CCCN3CCC2)c1ccc2c3c(cccc13)CC2

Given back:
1: 463; 2: 532; 3: 595; 4: 545; 5: 600

====

# PROCEDURE_TEXT: solvent given as SMILES
# TEST_CONTEXT: in ClCCl
Assignment: determine reported emission maximum for the given compounds.
Answers are plain numbers, in nm.

Field: example entries. Status: answers known.
Asked: Return reported emission maximum; argument: CC1=C(I)C(C)=[N+]2C1=C(c1c(-c3ccccn3)nc3ccccn13)c1c(C)cc(C)n1[B-]2(F)F
Given back: 558

Asked: Quick one: emission maximum for COc1c2ccccc2c(OC)c2c(C#CC(C)(C)C)c3cc4sccc4cc3c(C#CC(C)(C)C)c12 ?
Given back: 634

Asked: Please look up its emission maximum: CC1=CC(C)=[N+]2C1=Cc1c3ccccc3c(C#Cc3ccccc3)n1[B-]2(F)F
Given back: 629

Asked: Suppose we examine the compound C[Si](C)(C)C#Cc1cc(C#C[Si](C)(C)C)c2ccc3c(C(=O)c4ccccc4)cc(C#C[Si](C)(C)C)c4ccc1c2c43 ; what emission maximum value has been reported?
Given back: 467

Asked: Name the reported emission maximum value associated with the compound CN(C)c1ccc(C#Cc2cc(C#Cc3ccc(C(F)(F)F)cc3)c3ccc4c(C#Cc5ccc(N(C)C)cc5)cc(C#Cc5ccc(C(F)(F)F)cc5)c5ccc2c3c45)cc1
Given back: 605

Asked: Please give the measured emission maximum for this compound: CN(/N=C1\N=C(N)C2(CCCC2)c2ccccc21)c1ccccc1
Given back: 471

Asked: Record request: emission maximum value, item Cn1cc(-c2nc3ccccc3nc2C#Cc2ccc(C#N)cc2)c2ccccc21
Given back: 520

Proceeding to the next compound to report its emission maximum.
Asked: Can you share its emission maximum? I mean this compound: CN(C)c1ccc(C2=C3C=C(c4ccc(C=C(C#N)C#N)cc4)S[C@]34c3ccccc3[C@H]2c2ccccc24)cc1
Given back: 748
